TEST SYSTEM: CDK2/Cyclin E1 (Homo sapiens, UniProt P24941)
PROCEDURE SUMMARY: NanoBRET live-cell target engagement, CDK2-NanoLuc/Cyclin E1 in HEK-293
Assay type: binding
EXPERIMENTAL SETUP: CDK2/E1; read-out: IC50 (nM) Replicate 2
MEASUREMENT LABEL: IC50 (nM)
API: value field is a number in nM; no unit string.

COMPOUND: CNC1CCN(C(=O)c2ccc(Nc3ncc(F)c(-c4cnc(C)n4C(C)C)n3)cc2)C1 (stereo not shown) [AZD5597]
TEST SYSTEM: CDK2/Cyclin E1 (Homo sapiens, UniProt P24941)
IC50, nM: 6.4
--
COMPOUND: CC[C@H](CO)Nc1nc(Nc2cccc(-c3ccccn3)c2)c2ncn(C(C)C)c2n1 [(R) - DRF053]
TEST SYSTEM: CDK2/Cyclin E1 (Homo sapiens, UniProt P24941)
IC50, nM: 450
--
COMPOUND: CCCCOc1c(C(=O)c2c(F)cc(C)cc2F)c[nH]c2nncc1-2 [BMS-265246]
TEST SYSTEM: CDK2/Cyclin E1 (Homo sapiens, UniProt P24941)
IC50, nM: 31

Now let's try a different one.
Any idea what IC50 came out for C[C@H]1CC[C@H](n2c3cnccc3c3cnc(Nc4ccc5c(n4)CCN(C(=O)CO)C5)nc32)CC1 [AMG 925] on CDK2/Cyclin E1 (Homo sapiens, UniProt P24941)?
400

----------
TEST SYSTEM: CDK9/Cyclin K (Homo sapiens)
Sequence (P50750 whole entry): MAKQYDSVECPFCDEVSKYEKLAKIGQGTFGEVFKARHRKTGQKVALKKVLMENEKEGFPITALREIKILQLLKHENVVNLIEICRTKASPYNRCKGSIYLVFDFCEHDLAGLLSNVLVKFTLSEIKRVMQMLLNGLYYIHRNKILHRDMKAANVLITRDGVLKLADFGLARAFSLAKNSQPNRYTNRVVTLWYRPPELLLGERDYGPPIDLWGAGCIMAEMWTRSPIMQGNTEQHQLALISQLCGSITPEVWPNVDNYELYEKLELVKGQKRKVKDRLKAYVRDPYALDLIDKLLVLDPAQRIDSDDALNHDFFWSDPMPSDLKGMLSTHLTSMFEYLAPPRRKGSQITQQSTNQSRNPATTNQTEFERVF
Sequence (O75909 whole entry partner): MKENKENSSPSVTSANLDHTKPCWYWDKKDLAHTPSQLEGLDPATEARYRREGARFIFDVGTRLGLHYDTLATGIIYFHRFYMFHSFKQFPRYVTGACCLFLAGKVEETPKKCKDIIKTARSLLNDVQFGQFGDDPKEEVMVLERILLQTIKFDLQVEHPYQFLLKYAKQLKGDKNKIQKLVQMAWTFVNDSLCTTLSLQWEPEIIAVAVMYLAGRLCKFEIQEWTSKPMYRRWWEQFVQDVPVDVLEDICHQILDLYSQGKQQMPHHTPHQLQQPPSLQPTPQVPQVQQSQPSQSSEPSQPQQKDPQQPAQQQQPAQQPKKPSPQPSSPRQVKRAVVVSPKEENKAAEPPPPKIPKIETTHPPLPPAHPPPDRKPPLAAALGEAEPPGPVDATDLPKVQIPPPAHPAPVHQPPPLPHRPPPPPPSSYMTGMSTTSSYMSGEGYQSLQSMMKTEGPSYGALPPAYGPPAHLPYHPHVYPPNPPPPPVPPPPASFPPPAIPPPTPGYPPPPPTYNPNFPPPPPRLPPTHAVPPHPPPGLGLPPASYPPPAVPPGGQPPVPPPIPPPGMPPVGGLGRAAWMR
PROCEDURE SUMMARY: NanoBRET live-cell target engagement, NanoLuc-CDK9/Cyclin K in HEK-293
Format: binding
EXPERIMENTAL SETUP: 10µM; independent experiment 1; read-out: CDK9/K Inhibition at 10µM (%)
Output condition met for inhibition at 10 µM not less than 90%; output condition not met otherwise.

See these solved cases before continuing.
MOLECULE: CN(C)C/C=C/C(=O)Nc1ccc(C(=O)N2CCC[C@@H](Nc3ncc(Cl)c(-c4c[nH]c5ccccc45)n3)C2)cc1 [THZ531]
GROUP: condition not met
--
MOLECULE: CN1C/C=C/CCOc2cccc(c2)-c2ccnc(n2)Nc2cccc(c2)C1 [SB1317]
GROUP: condition met
--
MOLECULE: CC(C)[C@H](CO)Nc1nc(Nc2ccc(C(=O)O)c(Cl)c2)c2ncn(C(C)C)c2n1 [Purvalanol B]
GROUP: condition not met
--
MOLECULE: CC(=O)c1c(C)c2cnc(Nc3ccc(N4CCNCC4)cn3)nc2n(C2CCCC2)c1=O [Palbociclib]
GROUP: condition not met
--
MOLECULE: CN1CCN(c2ccc(Nc3ncc4cc5n(c4n3)C3(CCCCC3)CNC5=O)nc2)CC1 [Trilaciclib]
GROUP: condition not met

Moving on to the next molecule.
API: above_or_equal(metric=inhibition at 10 µM, cutoff=90%) for item CN(C)C(=O)c1cc2cnc(Nc3ccc(N4CCNCC4)cn3)nc2n1C1CCCC1 [Ribociclib]
condition not met

----------
TEST SYSTEM: CDK2/Cyclin E1 (Homo sapiens, UniProt P24941)
PROCEDURE SUMMARY: NanoBRET live-cell target engagement, CDK2-NanoLuc/Cyclin E1 in HEK-293
Format: binding
EXPERIMENTAL SETUP: CDK2/E1; 10µM; read-out: Inhibition at 10µM (%) Replicate 2
MEASUREMENT LABEL: inhibition at 10 µM (%)
Supply the numeric figure in %, leaving out any unit text.

In the examples that follow, each entry is paired with its recorded inhibition at 10 µM.
MOLECULE: CCCCOc1c(C(=O)c2c(F)cc(C)cc2F)c[nH]c2nncc1-2 [BMS-265246]
inhibition at 10 µM / %: 82.8

MOLECULE: C[C@H]1CC[C@H](n2c3cnccc3c3cnc(Nc4ccc5c(n4)CCN(C(=O)CO)C5)nc32)CC1 [AMG 925]
inhibition at 10 µM / %: 87

MOLECULE: COc1cc(F)ccc1-c1ncnc(Nc2cccc(C[S@](C)(=N)=O)c2)n1 [Atuveciclib]
inhibition at 10 µM / %: 40.5

Missing value: inhibition at 10 µM, CDK2/Cyclin E1 (Homo sapiens, UniProt P24941), entry CC(C)c1cnn2c(NCc3ccccc3)cc(NCCCCCCN)nc12 [BS-181] . Fill in?
44

Please tell me: inhibition at 10 µM of CCN1CCN(Cc2ccc(NC(=O)Nc3ccc(Oc4cc(NC)ncn4)cc3)cc2C(F)(F)F)CC1 [AST-487] , system CDK2/Cyclin E1 (Homo sapiens, UniProt P24941)?
24.5

Return inhibition at 10 µM measured with CDK2/Cyclin E1 (Homo sapiens, UniProt P24941) given this molecule: COc1cc(F)ccc1-c1cc(Nc2cc(CS(C)(=N)=O)ccn2)ncc1F (stereo not drawn) [BAY-1251152]
73.6
